Hello, the source for this data is patent US20260248972A1, in case you need it.

Known tissue uptake at 72 h of a selection of compounds
# RUN DESCRIPTION: in vivo
# TEST CONTEXT: BALB/c nude, mouse, in vivo, iv, total radioactivity, % ID/g Pancreas
MEASURED METRIC: tissue uptake at 72 h (%ID/g)

>>> recorded_result("C[C@@H](O)[C@H](NC(=O)[C@@H]1CSSC[C@H](NC(=O)[C@@H](Cc2ccccc2)NC(=O)CN2CCN(CC(=O)O)CCN(CC(=O)O)CCN(CC(=O)O)CC2)C(=O)N[C@@H](Cc2ccc(O)cc2)C(=O)N[C@H](Cc2c[nH]c3ccccc23)C(=O)N[C@@H](CCCCN)C(=O)N[C@@H]([C@@H](C)O)C(=O)N1)C(=O)O [^177Lu-C-1, metal not drawn, reference compound]")
0.03
>>> recorded_result("C[C@@H](O)[C@H](NC(=O)[C@@H]1CSSC[C@H](NC(=O)[C@@H](Cc2ccccc2)NC(=O)COCCOCCNC(=O)COCCOCCNC(=O)[C@H](CCCCNC(=O)c2cccc(NC(=O)N[C@@H]3CN(C4CCCCC4)c4ccccc4N(CC(=O)C(C)(C)C)C3=O)c2)NC(=O)CN2CCN(CC(=O)O)CCN(CC(=O)O)CCN(CC(=O)O)CC2)C(=O)N[C@@H](Cc2ccc(O)cc2)C(=O)N[C@H](Cc2c[nH]c3ccccc23)C(=O)N[C@@H](CCCCN)C(=O)N[C@@H]([C@@H](C)O)C(=O)N1)C(=O)O [Compound 177Lu-I-39, metal not drawn]")
0.15

* * *

# RUN DESCRIPTION: in vivo
# TEST CONTEXT: BALB/c nude, mouse, in vivo, iv, total radioactivity, % ID/g Pancreas
MEASURED METRIC: tissue uptake at 72 h (%ID/g)

>>> recorded_result("C[C@@H](O)[C@H](NC(=O)[C@@H]1CSSC[C@H](NC(=O)[C@@H](Cc2ccccc2)NC(=O)[C@H](CCCCNC(=O)c2cccc(NC(=O)N[C@@H]3CN(C4CCCCC4)c4ccccc4N(CC(=O)C(C)(C)C)C3=O)c2)NC(=O)COCCOCCNC(=O)CN2CCN(CC(=O)O)CCN(CC(=O)O)CCN(CC(=O)O)CC2)C(=O)N[C@@H](Cc2ccc(O)cc2)C(=O)N[C@H](Cc2c[nH]c3ccccc23)C(=O)N[C@@H](CCCCN)C(=O)N[C@@H]([C@@H](C)O)C(=O)N1)C(=O)O [^177Lu-I-35, metal not drawn]")
0.34
>>> recorded_result("C[C@@H](O)[C@H](NC(=O)[C@@H]1CSSC[C@H](NC(=O)[C@@H](Cc2ccccc2)NC(=O)COCCOCCNC(=O)[C@H](CCCCNC(=O)c2cccc(NC(=O)N[C@@H]3CN(C4CCCCC4)c4ccccc4N(CC(=O)C(C)(C)C)C3=O)c2)NC(=O)CN2CCN(CC(=O)O)CCN(CC(=O)O)CCN(CC(=O)O)CC2)C(=O)N[C@@H](Cc2ccc(O)cc2)C(=O)N[C@H](Cc2c[nH]c3ccccc23)C(=O)N[C@@H](CCCCN)C(=O)N[C@@H]([C@@H](C)O)C(=O)N1)C(=O)O [Compound 177Lu-I-37, metal not drawn]")
0.19
>>> recorded_result("C[C@@H](O)[C@H](NC(=O)[C@@H]1CSSC[C@H](NC(=O)[C@@H](Cc2ccccc2)NC(=O)[C@H](CCCCNC(=O)COCCOCCNC(=O)c2cccc(NC(=O)N[C@@H]3CN(C4CCCCC4)c4ccccc4N(CC(=O)C(C)(C)C)C3=O)c2)NC(=O)CN2CCN(CC(=O)O)CCN(CC(=O)O)CCN(CC(=O)O)CC2)C(=O)N[C@@H](Cc2ccc(O)cc2)C(=O)N[C@H](Cc2c[nH]c3ccccc23)C(=O)N[C@@H](CCCCN)C(=O)N[C@@H]([C@@H](C)O)C(=O)N1)C(=O)O [^177Lu-I-36, metal not drawn]")
1.28
